STUDY TARGET: UniProt Q13547
EXPERIMENT DESCRIPTION: Inhibition of HDAC1 in human MDA-MB-231 cells assessed as inhibition of H4 deacetylation at 50 uM after 24 hrs by Western blot analysis
Assay type: cell-based
The source made the active and inactive calls. The calls are words filed in the database; no cut-off is given here.
READOUT TYPE: inhibition

The following compounds have reported results that may help.
{"SAMPLE SMILES": "[N-]=[N+]=NCc1cc(N=[N+]=[N-])cc(C(=O)Nc2cc(-c3cccs3)ccc2N)c1", "EXPERIMENTAL VALUE": "Active"}
{"SAMPLE SMILES": "[N-]=[N+]=NCCOc1ccc(C(=O)Nc2cc(-c3cccs3)ccc2N)cc1N=[N+]=[N-]", "EXPERIMENTAL VALUE": "Active"}
{"SAMPLE SMILES": "[N-]=[N+]=NCc1cc(N=[N+]=[N-])cc(C(=O)Nc2cc(-c3ccccc3)ccc2N)c1", "EXPERIMENTAL VALUE": "Active"}
{"SAMPLE SMILES": "[N-]=[N+]=Nc1cccc(COC(=O)NCc2ccc(C(=O)Nc3cc(-c4ccccc4)ccc3N)cc2)c1", "EXPERIMENTAL VALUE": "Active"}
{"SAMPLE SMILES": "[N-]=[N+]=Nc1ccc(C(=O)Nc2cc(-c3cccs3)ccc2N)cc1", "EXPERIMENTAL VALUE": "Active"}
{"SAMPLE SMILES": "[N-]=[N+]=NCCOc1ccc(C(=O)Nc2cc(-c3ccccc3)ccc2N)cc1N=[N+]=[N-]", "EXPERIMENTAL VALUE": "Active"}
{"SAMPLE SMILES": "[N-]=[N+]=Nc1ccc(C(=O)Nc2cc(-c3ccccc3)ccc2N)cc1", "EXPERIMENTAL VALUE": "Active"}
{"SAMPLE SMILES": "[N-]=[N+]=NCc1cc(COC(=O)NCc2ccc(C(=O)Nc3cc(-c4cccs4)ccc3N)cc2)cc(N=[N+]=[N-])c1", "EXPERIMENTAL VALUE": "Active"}

Shift focus to the following entry.
query: Please provide the recorded inhibition for [N-]=[N+]=NCc1cc(COC(=O)NCc2ccc(C(=O)Nc3cc(-c4ccccc4)ccc3N)cc2)cc(N=[N+]=[N-])c1 , tested on UniProt Q13547.
result: Active

---

STUDY TARGET: Histone deacetylase 2 (Homo sapiens, UniProt Q92769)
Sequence (Q92769 whole entry): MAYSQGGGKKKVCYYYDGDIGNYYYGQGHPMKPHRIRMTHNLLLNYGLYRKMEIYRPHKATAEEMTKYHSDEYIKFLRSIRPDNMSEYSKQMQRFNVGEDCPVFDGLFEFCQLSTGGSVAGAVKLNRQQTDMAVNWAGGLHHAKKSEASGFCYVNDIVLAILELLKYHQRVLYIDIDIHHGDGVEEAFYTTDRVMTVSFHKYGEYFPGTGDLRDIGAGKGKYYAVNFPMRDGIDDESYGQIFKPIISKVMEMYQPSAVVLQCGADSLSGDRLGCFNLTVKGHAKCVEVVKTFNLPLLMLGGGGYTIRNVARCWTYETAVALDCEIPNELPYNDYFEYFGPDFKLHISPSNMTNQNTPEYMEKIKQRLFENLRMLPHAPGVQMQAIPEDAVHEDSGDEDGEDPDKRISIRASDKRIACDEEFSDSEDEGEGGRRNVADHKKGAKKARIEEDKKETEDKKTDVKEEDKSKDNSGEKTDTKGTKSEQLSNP
EXPERIMENT DESCRIPTION: Inhibition of HDAC2 in human MDA-MB-231 cells assessed as inhibition of H4 deacetylation at 50 uM after 24 hrs by Western blot analysis
Assay type: cell-based
The source made the active and inactive calls. The calls are words filed in the database; no cut-off is given here.
READOUT TYPE: inhibition

The following compounds have reported results that may help.
{"SAMPLE SMILES": "[N-]=[N+]=NCCOc1ccc(C(=O)Nc2cc(-c3ccccc3)ccc2N)cc1N=[N+]=[N-]", "EXPERIMENTAL VALUE": "Active"}
{"SAMPLE SMILES": "[N-]=[N+]=Nc1ccc(C(=O)Nc2cc(-c3cccs3)ccc2N)cc1", "EXPERIMENTAL VALUE": "Active"}
{"SAMPLE SMILES": "[N-]=[N+]=NCc1cc(N=[N+]=[N-])cc(C(=O)Nc2cc(-c3ccccc3)ccc2N)c1", "EXPERIMENTAL VALUE": "Active"}
{"SAMPLE SMILES": "[N-]=[N+]=NCc1cc(COC(=O)NCc2ccc(C(=O)Nc3cc(-c4ccccc4)ccc3N)cc2)cc(N=[N+]=[N-])c1", "EXPERIMENTAL VALUE": "Active"}

Shift focus to the following entry.
query: Can you share its inhibition? I mean this compound: [N-]=[N+]=Nc1cccc(COC(=O)NCc2ccc(C(=O)Nc3cc(-c4ccccc4)ccc3N)cc2)c1
result: Active

---

Quick reference for pIC50 among some molecules
STUDY TARGET: Histone deacetylase 2 (Homo sapiens)
EXPERIMENT DESCRIPTION: Inhibition of human recombinant HDAC2 using Boc-L-Lys (Ac)-AMC as substrate preincubated with compound for 3 hrs measured after 35 mins by spectrofluorometric analysis
Scale for pIC50: -log10 of concentration given in mol/L; no unit attached.

The following molecules have reported results that may help.
{"SAMPLE SMILES": "[N-]=[N+]=NCCOc1ccc(C(=O)Nc2cc(-c3ccccc3)ccc2N)cc1N=[N+]=[N-]", "pIC50": 5.19}
{"SAMPLE SMILES": "[N-]=[N+]=NCCOc1ccc(C(=O)Nc2cc(-c3cccs3)ccc2N)cc1N=[N+]=[N-]", "pIC50": 5.18}
{"SAMPLE SMILES": "[N-]=[N+]=Nc1cccc(COC(=O)NCc2ccc(C(=O)Nc3cc(-c4ccccc4)ccc3N)cc2)c1", "pIC50": 6.00}

Shift focus to the following entry.
query: Can you share its pIC50? I mean this molecule: Nc1ccc(-c2ccccc2)cc1NC(=O)c1ccccc1
result: 6.46

---

STUDY TARGET: Histone deacetylase 8 (Homo sapiens)
Sequence (whole entry): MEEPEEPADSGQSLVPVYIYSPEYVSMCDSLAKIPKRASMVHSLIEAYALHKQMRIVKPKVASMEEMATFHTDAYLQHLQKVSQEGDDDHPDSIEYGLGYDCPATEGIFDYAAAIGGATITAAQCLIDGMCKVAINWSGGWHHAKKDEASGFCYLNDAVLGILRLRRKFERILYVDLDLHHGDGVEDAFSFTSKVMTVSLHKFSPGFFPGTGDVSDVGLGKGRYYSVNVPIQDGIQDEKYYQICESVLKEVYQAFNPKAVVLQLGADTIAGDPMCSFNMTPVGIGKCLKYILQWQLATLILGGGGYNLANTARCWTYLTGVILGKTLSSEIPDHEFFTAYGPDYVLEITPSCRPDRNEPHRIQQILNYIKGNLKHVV
EXPERIMENT DESCRIPTION: Inhibition of human recombinant HDAC8 using BML-KI-178 as substrate at 10 uM by spectrofluorometric analysis
TEST PARAMETERS: TDE = time-dependent effect
READOUT TYPE: inhibition

The following molecules have reported results that may help.
{"SAMPLE SMILES": "[N-]=[N+]=NCCC(=O)Nc1ccc(C(=O)Nc2cc(N=[N+]=[N-])ccc2N)cc1", "inhibition": "tde"}
{"SAMPLE SMILES": "[N-]=[N+]=NCc1cc(N=[N+]=[N-])cc(C(=O)Nc2cc(-c3ccccc3)ccc2N)c1", "inhibition": "tde"}
{"SAMPLE SMILES": "Nc1ccc(-c2ccccc2)cc1NC(=O)c1ccc(CNC(=O)OCc2ccccc2)cc1", "inhibition": "tde"}
{"SAMPLE SMILES": "[N-]=[N+]=NCCOc1ccc(C(=O)Nc2cc(-c3cccs3)ccc2N)cc1N=[N+]=[N-]", "inhibition": "tde"}
{"SAMPLE SMILES": "[N-]=[N+]=Nc1cccc(COC(=O)NCc2ccc(C(=O)Nc3cc(-c4ccccc4)ccc3N)cc2)c1", "inhibition": "tde"}
{"SAMPLE SMILES": "[N-]=[N+]=NCc1cc(COC(=O)NCc2ccc(C(=O)Nc3cc(-c4ccccc4)ccc3N)cc2)cc(N=[N+]=[N-])c1", "inhibition": "tde"}
{"SAMPLE SMILES": "Nc1ccc(-c2ccccc2)cc1NC(=O)c1ccccc1", "inhibition": "tde"}
{"SAMPLE SMILES": "[N-]=[N+]=NCCOc1ccc(C(=O)Nc2cc(-c3ccccc3)ccc2N)cc1N=[N+]=[N-]", "inhibition": "tde"}
{"SAMPLE SMILES": "[N-]=[N+]=NCc1cc(COC(=O)NCc2ccc(C(=O)Nc3cc(-c4cccs4)ccc3N)cc2)cc(N=[N+]=[N-])c1", "inhibition": "tde"}
{"SAMPLE SMILES": "[N-]=[N+]=Nc1ccc(C(=O)Nc2cc(-c3cccs3)ccc2N)cc1", "inhibition": "tde"}

query: Can you share its inhibition? I mean this molecule: [N-]=[N+]=Nc1ccc(C(=O)Nc2cc(-c3ccccc3)ccc2N)cc1
result: tde

query: Can you share its inhibition? I mean this molecule: [N-]=[N+]=NCc1cc(N=[N+]=[N-])cc(C(=O)Nc2cc(-c3cccs3)ccc2N)c1
result: tde

---

STUDY TARGET: Histone deacetylase 1 (Homo sapiens)
Sequence (Q13547 whole entry): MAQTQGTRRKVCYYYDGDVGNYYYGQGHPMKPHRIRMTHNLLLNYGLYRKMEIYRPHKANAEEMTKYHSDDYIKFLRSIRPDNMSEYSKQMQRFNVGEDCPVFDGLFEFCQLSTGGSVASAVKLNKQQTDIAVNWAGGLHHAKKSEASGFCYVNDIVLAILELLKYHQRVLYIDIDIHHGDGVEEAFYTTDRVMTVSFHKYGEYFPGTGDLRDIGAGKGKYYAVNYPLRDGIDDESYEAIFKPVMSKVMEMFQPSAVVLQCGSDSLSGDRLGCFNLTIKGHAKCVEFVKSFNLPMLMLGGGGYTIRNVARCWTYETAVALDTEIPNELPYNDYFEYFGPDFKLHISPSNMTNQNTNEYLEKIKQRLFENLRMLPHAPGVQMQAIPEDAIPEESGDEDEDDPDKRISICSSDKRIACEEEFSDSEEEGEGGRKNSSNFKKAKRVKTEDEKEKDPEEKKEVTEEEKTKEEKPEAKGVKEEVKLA
EXPERIMENT DESCRIPTION: Inhibition of human recombinant HDAC1 using Boc-L-Lys (Ac)-AMC as substrate preincubated with compound for 3 hrs measured after 35 mins by spectrofluorometric analysis
Quick reference for pIC50 among some compounds
Scale for pIC50: -log10 of concentration given in mol/L; no unit attached.

The following compounds have reported results that may help.
{"SAMPLE SMILES": "[N-]=[N+]=NCc1cc(N=[N+]=[N-])cc(C(=O)Nc2cc(-c3cccs3)ccc2N)c1", "pIC50": 5.85}
{"SAMPLE SMILES": "[N-]=[N+]=NCCOc1ccc(C(=O)Nc2cc(-c3ccccc3)ccc2N)cc1N=[N+]=[N-]", "pIC50": 5.57}
{"SAMPLE SMILES": "[N-]=[N+]=Nc1cccc(COC(=O)NCc2ccc(C(=O)Nc3cc(-c4ccccc4)ccc3N)cc2)c1", "pIC50": 6.11}
{"SAMPLE SMILES": "[N-]=[N+]=NCCOc1ccc(C(=O)Nc2cc(-c3cccs3)ccc2N)cc1N=[N+]=[N-]", "pIC50": 5.42}

Shift focus to the following entry.
query: Can you share its pIC50? I mean this compound: Nc1ccc(-c2ccccc2)cc1NC(=O)c1ccccc1
result: 7.28
